For each record, write down the corresponding IC50.
Target: canine PD-1 (canine)
Assay: competition ELISA, blockade of canine PD-1/PD-L1 binding; competitor canine PD-L1
Numbers only, in nM.

Check out these entries, answers already filled in.
NAN10 (4B4) (VHH) VHH: QVQLQASGGGLVQGGESLRLSCAASGRTVAEYTIGWYRQAPGKEREFVAGPSWHARGTSYLDSVKGRFTISRDNTKDTVYLQMNTLKPEDTAVYYCNADVNTDYSEYVEYWGQGTQVG = 5.04
NAN7/8 (5A5) (VHH) VHH: QVQLQASGGGLVEPGGSLRLSCAASGAIFRIAAMGWYRQAPGKERELVATITRGGSTNYADSVKGRFTISRDNAKNTAYLQMDSLKAEDTGVYYCNAGLWATTSANYWGQGTQVG = 6.83
NAN15 (4B2) (VHH) VHH: QVQLQASGGGLVQPGEHLLLSCAASGFAFGIYTMGWYRQAPGKEREKVASISRTSDSWNYADSVKGRFTISRENAKNTLYLQMNSLKPEDTALYFCAKSRSAWNTDDIEYWGQGTQVG = 5

For the next question, use this binder.
Notebook: NAN4 (5A1) (VHH) VHH: QVQLQASGGGLVQPGGSLTLSCAASGSIDSILAMGWYRQGPGKQREFVASISWSGDITYYADSAKGRFTISRDNAKNTVYLQMNSLKPEDTAVYYCNAGPDMQISGPTDDYDYWGQGTQVG , IC50 read as 8.25

This collection of values is drawn from patent US20210047412A1.
